TEST SUMMARY: Stability in human liver microsome at 1 uM measured after 30 mins in absence of NADPH by LC-MS/MS analysis
Format: ADME
TEST PARAMETERS: liver microsomes, read-out: Stabilty
REPORTED PROPERTY: remaining at 0.5 h, 1 µM (%)
Kindly answer with a numeric value in %, unit omitted.

Form field: reported remaining at 0.5 h, 1 µM of CC(=O)NC[C@@H]1OC(=O)N2c3cc(F)c(N4CCSCC4)cc3OC[C@@H]12
81.5

----------
Test system: Mycobacterium tuberculosis
TEST SUMMARY: Antitubercular activity against Mycobacterium tuberculosis H37Rv incubated for 7 days by microplate alamar blue assay
Assay type: functional
TEST PARAMETERS: time 7 day; 168 h
REPORTED PROPERTY: MIC (µg/mL)
Give a bare numeral; the unit µg/mL is implied.

Look up MIC for this compound: CC(=O)NC[C@@H]1OC(=O)N2c3cc(F)c(N4CCSCC4)cc3OC[C@@H]12 (racemic)
0.16

What measured MIC goes with NC[C@@H]1OC(=O)N2c3cc(F)c(N4CCSCC4)cc3OC[C@@H]12 ?
0.03

Give its MIC value. Item: NC[C@@H]1OC(=O)N2c3cc(F)c(N4CCSCC4)cc3OC[C@@H]12 (racemic)
0.1

Report MIC for CC(=O)NC[C@@H]1OC(=O)N2c3cc(F)c(N4CCSCC4)cc3OC[C@@H]12 please.
0.03

----------
TARGET OR SYSTEM: Cytochrome P450 2C19 (Homo sapiens)
Sequence (P33261 whole entry): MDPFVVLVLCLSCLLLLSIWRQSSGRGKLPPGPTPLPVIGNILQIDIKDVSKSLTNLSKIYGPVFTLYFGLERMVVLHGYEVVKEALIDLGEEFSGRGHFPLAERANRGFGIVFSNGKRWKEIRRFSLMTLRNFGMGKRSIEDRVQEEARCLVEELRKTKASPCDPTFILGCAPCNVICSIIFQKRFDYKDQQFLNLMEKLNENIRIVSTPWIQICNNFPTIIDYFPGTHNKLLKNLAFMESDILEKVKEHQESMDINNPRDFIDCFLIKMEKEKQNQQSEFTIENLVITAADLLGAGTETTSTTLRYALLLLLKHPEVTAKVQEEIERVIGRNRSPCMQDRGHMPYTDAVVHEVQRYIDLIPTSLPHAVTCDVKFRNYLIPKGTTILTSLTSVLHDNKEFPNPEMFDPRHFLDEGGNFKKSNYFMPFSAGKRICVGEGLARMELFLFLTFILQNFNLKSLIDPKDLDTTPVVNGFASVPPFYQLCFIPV
REPORTED PROPERTY: pIC50
On this scale, pIC50 is minus log10 of a concentration expressed in M (mol/L).

# lookup: pIC50 of CC(=O)NC[C@@H]1OC(=O)N2c3cc(F)c(N4CCSCC4)cc3OC[C@@H]12
4.32

----------
# IC50 listing for each entry below
Test system: Vero
TEST SUMMARY: Cytotoxicity against African green monkey Vero cells assessed as reduction in cell viability measured after 48 hrs by MTT assay
Format: cell-based
TEST PARAMETERS: Chlorocebus sabaeus

Past entries and their recorded results:
MOLECULE | IC50
O=C1O[C@@H](CNc2ccon2)[C@@H]2COc3cc(N4C5CCC4CSC5)c(F)cc3N12 | > 64 µg/mL
O=C(NC[C@@H]1OC(=O)N2c3cc(F)c(N4CCSCC4)cc3OC[C@@H]12)c1cnccn1 | 40.7 µg/mL
CC(=O)NC[C@@H]1OC(=O)N2c3ccc(N4CCSCC4)cc3OC[C@@H]12 | > 64 µg/mL
CC(=O)NC[C@@H]1OC(=O)N2c3cc(F)c(N4CCOCC4)cc3OC[C@@H]12 | > 64 µg/mL

What does the record list as IC50 for NC[C@@H]1OC(=O)N2c3cc(F)c(N4CCSCC4)cc3OC[C@@H]12 ?
36 µg/mL

// lookup IC50 for CC(=O)NC[C@H]1CN(c2ccc(N3CCSCC3)c(F)c2)C(=O)O1 [SUTEZOLID]
> 64 µg/mL

Which measured IC50 value corresponds to CC(C)C(=O)NC[C@@H]1OC(=O)N2c3cc(F)c(N4C5CCC4CSC5)cc3OC[C@@H]12 ?
> 64 µg/mL

Look up IC50 for this molecule: CC(=O)N(C[C@@H]1OC(=O)N2c3cc(F)c(N4CCSCC4)cc3OC[C@@H]12)C(C)=O
> 64 µg/mL

Data request, read-out IC50, for O=C1O[C@@H](Cn2ccnn2)[C@@H]2COc3cc(N4C5CCC4CSC5)c(F)cc3N12
> 64 µg/mL

Find the recorded IC50 belonging to O=C(NC[C@@H]1OC(=O)N2c3cc(F)c(N4C5CCC4CSC5)cc3OC[C@@H]12)C1CC1 and report it.
> 64 µg/mL

# IC50 lookup, item O=C(NC[C@@H]1OC(=O)N2c3cc(F)c(N4C5CCC4CSC5)cc3OC[C@@H]12)C1CCC1
34.7 µg/mL

Report IC50 for CC(=O)NC[C@@H]1OC(=O)N2c3cc(F)c(N4C5CCC4CSC5)cc3OC[C@@H]12 please.
58.5 µg/mL

Bench note: what IC50 did COC(=O)NC[C@@H]1OC(=O)N2c3cc(F)c(N4C5CCC4CSC5)cc3OC[C@@H]12 show?
> 64 µg/mL

Look up IC50 for this molecule: O=C(NC[C@@H]1OC(=O)N2c3cc(F)c(N4C5CCC4CSC5)cc3OC[C@@H]12)c1ccncc1
> 64 µg/mL

May I ask what IC50 has been recorded for O=C1O[C@@H](Cn2ccnn2)[C@@H]2COc3cc(N4CC5(COC5)C4)c(F)cc3N12 ?
> 64 µg/mL

I am curious: what IC50 value has been reported for O=C(NC[C@@H]1OC(=O)N2c3cc(F)c(N4C5CCC4CSC5)cc3OC[C@@H]12)c1cnccn1 ?
9.53 µg/mL

IC50 lookup needed for CNC[C@@H]1OC(=O)N2c3cc(F)c(N4CCSCC4)cc3OC[C@@H]12 , thanks.
46.5 µg/mL

----------
TEST SUMMARY: Terminal half life in Balb/c mouse at 2.5 mg/kg, iv by LC-MS/MS analysis
Assay type: ADME, organism-based
TEST PARAMETERS: in vivo, read-out: beta t1/2 (converted)
Listed here are compounds together with their documented half-life.
Entry rule: numbers only, all in h.

MOL SMILES | MEASURED VALUE
CC(=O)NC[C@@H]1OC(=O)N2c3cc(F)c(N4CC[S+]([O-])CC4)cc3OC[C@@H]12 | 3.81

Now let's try a different one.
For CC(=O)NC[C@@H]1OC(=O)N2c3cc(F)c(N4CCSCC4)cc3OC[C@@H]12 , what is its reported half-life?
0.923

----------
TEST SUMMARY: Stability in CD-1 mouse liver microsome assessed as parent compound remaining at 1 uM measured after 30 mins in presence of NADPH by LC-MS/MS analysis
Format: ADME
TEST PARAMETERS: liver microsomes, read-out: Stabilty
REPORTED PROPERTY: remaining at 0.5 h, 1 µM (%)
State just the number; it will be interpreted in %.

Consider the following illustrative entries.
MOL SMILES | RESULT UNITS | MEASURED VALUE
COC(=O)NC[C@@H]1OC(=O)N2c3cc(F)c(N4CCSCC4)cc3OC[C@@H]12 | % | 3.59
O=C1O[C@@H](CNc2ccon2)[C@@H]2COc3cc(N4CCSCC4)c(F)cc3N12 | % | 0
O=C(NC[C@@H]1OC(=O)N2c3cc(F)c(N4CCSCC4)cc3OC[C@@H]12)C1CCC1 | % | 4

Please look at the following compound next.
Name the recorded remaining at 0.5 h, 1 µM for CC(C)C(=O)NC[C@@H]1OC(=O)N2c3cc(F)c(N4CCSCC4)cc3OC[C@@H]12 .
6.02

----------
TEST SUMMARY: MRT (0 to t) in Balb/c mouse at 2.5 mg/kg, iv by LC-MS/MS analysis
Assay type: ADME, organism-based
TEST PARAMETERS: in vivo
MRT last values by entry
Numeric only. Scale: h

MOL SMILES | MRT last (h)
CC(=O)NC[C@@H]1OC(=O)N2c3cc(F)c(N4CCSCC4)cc3OC[C@@H]12 | 0.54

Now examine the next entry.
Returns the measured MRT last for the input compound. Input: CC(=O)NC[C@@H]1OC(=O)N2c3cc(F)c(N4CC[S+]([O-])CC4)cc3OC[C@@H]12
3.52

----------
TARGET OR SYSTEM: UniProtKB P05177
Sequence (P05177 whole entry): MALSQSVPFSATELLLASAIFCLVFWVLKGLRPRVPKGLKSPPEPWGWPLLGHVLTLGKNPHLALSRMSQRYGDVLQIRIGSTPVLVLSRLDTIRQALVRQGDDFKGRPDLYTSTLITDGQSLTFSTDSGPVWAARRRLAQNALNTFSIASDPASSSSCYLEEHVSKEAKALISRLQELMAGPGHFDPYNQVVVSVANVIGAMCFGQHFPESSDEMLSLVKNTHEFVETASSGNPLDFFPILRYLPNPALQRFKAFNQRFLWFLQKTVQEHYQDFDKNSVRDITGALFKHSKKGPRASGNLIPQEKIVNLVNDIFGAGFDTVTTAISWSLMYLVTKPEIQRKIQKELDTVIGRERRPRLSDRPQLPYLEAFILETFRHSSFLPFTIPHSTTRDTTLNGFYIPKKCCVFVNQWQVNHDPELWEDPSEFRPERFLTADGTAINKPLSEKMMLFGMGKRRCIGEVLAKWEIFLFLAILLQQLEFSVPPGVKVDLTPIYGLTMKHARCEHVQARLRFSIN
REPORTED PROPERTY: IC50

Requested read-out IC50, target or system UniProtKB P05177, entry CC(=O)NC[C@@H]1OC(=O)N2c3cc(F)c(N4CCSCC4)cc3OC[C@@H]12
> 50 µM
